Origin of values: paper PMC4121618

Target: human KOP receptors (CHOhKOP) (Homo sapiens)
Sequence (P41145 whole entry): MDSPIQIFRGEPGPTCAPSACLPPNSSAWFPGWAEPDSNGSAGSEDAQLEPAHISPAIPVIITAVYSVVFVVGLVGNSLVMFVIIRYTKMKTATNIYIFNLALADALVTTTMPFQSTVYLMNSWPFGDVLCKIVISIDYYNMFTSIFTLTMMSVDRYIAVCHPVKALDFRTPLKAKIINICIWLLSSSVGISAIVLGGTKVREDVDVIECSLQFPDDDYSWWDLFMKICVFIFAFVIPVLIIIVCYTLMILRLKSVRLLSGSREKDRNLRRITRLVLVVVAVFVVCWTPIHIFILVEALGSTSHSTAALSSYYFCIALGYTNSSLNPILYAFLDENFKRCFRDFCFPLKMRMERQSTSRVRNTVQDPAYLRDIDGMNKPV
REPORTED PROPERTY: Ki
Value and unit, in that order.

Prompt: API: value(readout= Ki, system= human KOP receptors (CHOhKOP) (Homo sapiens), query= COc1ccc2c(c1OC)C13C=C(C#N)C=CC1(OC)C(C2)N(C)CC3 (stereo not shown) [compound 5] )
Response: 229 nM

###

Biological target: recombinant rat MOP receptor expressed in C6 glioma cells (Rattus norvegicus, UniProt P33535)
Sequence (P33535 whole entry): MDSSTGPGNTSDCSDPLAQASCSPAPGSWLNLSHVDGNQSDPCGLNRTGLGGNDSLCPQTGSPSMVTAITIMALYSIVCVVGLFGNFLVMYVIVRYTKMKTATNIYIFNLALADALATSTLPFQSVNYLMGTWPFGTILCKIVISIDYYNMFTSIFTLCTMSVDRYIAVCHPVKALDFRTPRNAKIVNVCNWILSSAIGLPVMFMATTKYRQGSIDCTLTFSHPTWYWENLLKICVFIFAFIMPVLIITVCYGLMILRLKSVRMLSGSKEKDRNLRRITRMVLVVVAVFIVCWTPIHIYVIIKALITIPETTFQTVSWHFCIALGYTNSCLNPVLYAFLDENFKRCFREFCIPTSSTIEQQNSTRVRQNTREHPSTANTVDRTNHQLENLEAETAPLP
Test: Binding assay in C6rMOP cell membranes ([3H]diprenorphine)
REPORTED PROPERTY: pKi
Scale note: pKi = -log10(concentration in M).

Prompt: Report pKi for COc1ccc2c(c1OC)C13C=C(C#N)C=CC1(OC)C(C2)N(C)CC3 (stereo not shown) [compound 5] please.
Response: 9.15
